Recorded values, source PubChem BioAssay (NCI).

- System: SK-MEL-2 melanoma
- Assay Text: NCI tumour cell line growth inhibition, 48 h; in the data active = GI50 below about 0.43 µM; inactive = the rest
*1 amine or outer side, *2 acyl side, *3 side chain or, on linkers, in order; H or OH if unused. Where a SMILES comes first, the peptide text is derived from it. Bridges are numbered along the chain shown (N, C = ends). [ ]: non-standard residue; d: D form. The star is where a group is joined. Phe(3,5-F2) = N[C@@H](Cc1cc(F)cc(F)c1)C(=O)O; Pro(4R-Me) = C[C@H]1CN[C@H](C(=O)O)C1; aThr = C[C@H](O)[C@H](N)C(=O)O; Pip = O=C(O)[C@@H]1CCCCN1; X10 = Fc1cc(C2CC2)ccc1N*; CO = O=C([*:1])[*:2]
Classes used: active, inactive

Compound: CC(=O)OC1OC([C@@H]2c3cccc(O)c3C(=O)c3c(O)cc(C)cc32)C(O)C(O)C1O (some centres not stated)
Category Label: active

Compound: O=C1NC(=NCCc2cccc(F)c2)S/C1=C\c1ccc2ncccc2c1
Category Label: inactive

Compound: COc1ccc2c(c1)sc1nc(-c3ccccc3)c(-c3cccc4ccccc34)n12
Category Label: inactive

Compound: C[C@@H]1C[C@H]2C(=O)O[C@@H](C)[C@H](NC(=O)[C@H](Cc3cc(F)cc(F)c3)NC(=O)Nc3ccc(C4CC4)cc3F)C(=O)N3CCC[C@H]3C(=O)N3CCCC[C@H]3C(=O)N[C@@H](C)C(=O)N2C1 ({X10-CO}-[Phe(3,5-F2)][aThr]P[Pip]A[Pro(4R-Me)]; ester 2-C)
Category Label: active

Compound: Cc1nc2sccn2c1-c1csc(Nc2ccccc2Cl)n1
Category Label: inactive

Compound: C=CC(=O)Nc1cc(Nc2ncc(C(=O)OC(C)C)c(-c3cn(C)c4ccccc34)n2)c(OC)cc1N(C)CCN(C)C
Category Label: inactive

Compound: COc1cnc2c(c1)C(=O)c1c-2n(CCCN2CCOCC2)c(=O)c2cc(F)ccc12
Category Label: inactive

----------
- Tested on: A498 renal
- Assay Text: NCI tumour cell line growth inhibition, 48 h
Recorded measurements of log10(TGI), one per entry
Observation Type: log10(TGI) (log10 of the value in µM)

Compound: COC1/C=C/OC2(C)Oc3c(C)c(O)c4c(O)c(c(/C=N/Nc5ccc([N+](=O)[O-])cc5[N+](=O)[O-])c(O)c4c3C2=O)NC(=O)C(C)=C/C=C/C(C)C(O)C(C)C(O)C(C)C(OC(C)=O)C1C (centres undefined)
Number: 1.15
--
Compound: CCCCCCCCCCCCCCNC(=O)CCC(NC(=O)c1ccc(N(C)Cc2cnc3nc(N)nc(N)c3n2)cc1)C(=O)NCCCCCCCCCCCCCC (centres undefined)
Number: 1.54
--
Compound: Nc1c2c(nc3ccccc13)-c1ccccc1CC2
Number: 1.21
--
Compound: CC(=O)OC1OC([C@@H]2c3cccc(O)c3C(=O)c3c(O)cc(C)cc32)C(O)C(O)C1O (some centres undefined)
Number: -0.45
--
Compound: CN(C)C(=O)O/N=C1/C(c2c(O)[nH]c3ccccc23)=Nc2ccccc21
Number: 1.26
--
Compound: C=CC(=O)Nc1cc(Nc2ncc(C(=O)OC(C)C)c(-c3cn(C)c4ccccc34)n2)c(OC)cc1N(C)CCN(C)C
Number: 0.88
--
Compound: COc1cccc(C2c3cc4c(cc3OC(C)(N3CCCC3)C2C)OCO4)c1O (centres undefined)
Number: 1.61
--
Compound: CCC(=O)[C@H](C)[C@@H](OC(=O)[C@H](C)CC)[C@H](C)[C@H]1OC(CC)=C(C)C(=O)[C@@H]1C
Number: 1.86
--
Compound: O=C1/C(=C/c2ccc(O)c(O)c2)CCC/C1=C\c1ccc(O)c(O)c1
Number: 1.32
--
Compound: Cc1ccccc1C(=O)N1CCc2c([nH]c3ccccc23)C1
Number: 1.71
--
Compound: C=CCN1C[C@H](C)N([C@H](c2ccc(C(=O)NC(CC)CC)cc2)c2cccc(OC)c2)C[C@H]1C
Number: 1.80
